Origin of values: ChEMBL document CHEMBL1201862

Test system: HOP-92
Assay Summary: NCI tumour cell line growth inhibition, 48 h
Active and inactive are the calls of the source. No stated cut-off is given here; in the data, active = GI50 up to about 1.1 µM and inactive = higher.
Respond only with the outcome that fits, drawn from t (active), f (inactive)

Worked cases, answers included:
N#C[BH2-][n+]1cn(C2CC(O)C(COP(=O)(O)OC3CC(n4cnc5c(N)ncnc54)OC3CO)O2)c2nc(N)[nH]c(=O)c21 (configuration not stated) | f
CN1C2(c3ccccc3)c3c(-c4ccccc4)sc(-c4ccccc4)c3C1(c1ccccc1)C1C(=O)N(c3ccccc3)C(=O)C12 (configuration not stated) | f
C=CCN1C(=O)/C(=C/c2ccc(OC)cc2)NC1=S | f
CC(=O)O[C@@H]1C2=C(C3=C([O-])C4=CC=CC(=O)C4C(=O)C3=C2[N+]#N)[C@H](OC(C)=O)[C@@H](OC(C)=O)[C@]1(C)O (some centres not stated) | t
CC(=O)C(I(OS(=O)(=O)c1ccc(C)cc1)c1ccccc1)=P(c1ccccc1)(c1ccccc1)c1ccccc1 | f

Q: Call for entry Cc1ccc(S(=O)(=O)N/N=C2/CCC(C(C)(C)C)CC2Br)cc1 (configuration not stated) :
Ans: f

Q: Call for entry CCC(=O)O[C@H]1CC[C@H]2[C@@H]3CCC4=C/C(=N/NC(=O)c5cccc6c(=O)c7ccccc7[nH]c56)CC[C@]4(C)[C@H]3CC[C@]12C :
Ans: f

====

System: SN12C
Assay Summary: NCI tumour cell line growth inhibition, 48 h
Active and inactive are the calls of the source. Rule as the data show it: active = GI50 up to about 1.1 µM and inactive = higher.
Measure: GI50

Examples from the recorded data:
N=C(N)Nc1ccc(-c2ccc(NC(=N)N)cc2)cc1 | 12.4 µM (inactive)
CCCCc1ccc(Nc2nc(Cl)c3ccn(C4CC(Oc5ccc(C)cc5)C(COc5ccc(C)cc5)O4)c3n2)cc1 (stereo not given) | > 46.5 µM (inactive)
CCN(CC)CCCNc1ccc([N+](=O)[O-])c2nc3ccc(OC)cc3c(N)c12 | 2.07 µM (inactive)

I looked up CC(Oc1ccc2cc(C(=O)c3ccccc3)c(=O)oc2c1)C(=O)O (stereo not given) and its GI50 for SN12C was > 100 µM (inactive)

I looked up O=C(Nc1ccccc1)C(=O)C(C(=O)c1ccccc1)C(c1ccccc1)c1ccccc1 (stereo not given) and its GI50 for SN12C was > 10 µM (inactive)

====

System: LOX IMVI
Assay Summary: NCI tumour cell line growth inhibition, 48 h
The source made the active and inactive calls. No stated cut-off is given here; in the data, active = GI50 up to about 1.1 µM and inactive = higher.
Respond only with the outcome that fits, drawn from T = active, F = inactive

Worked cases, answers included:
N=C(N)N/N=C\c1ccc(C2CCNCC2)cc1 | F
O=C1c2ccccc2C(=O)N1CCCC(=O)n1cc(F)c(=O)[nH]c1=O | F
CN(Cc1cnc2nc(N)nc(N)c2n1)c1ccc(C(=O)N[C@@H](CCC(=O)O)C(=O)O)cc1 [METHOTREXATE] | T
COc1cc(-c2[nH]ccc2Cl)oc1C1=C2N=C3C=C2C(C(C)C)C1CCCCCCCC3 (stereo not given) | T

Q: Call for entry Cc1cc(=O)oc2cc(OCCCOc3ccc4c(C)cc(=O)oc4c3)ccc12 :
Ans: F

Q: Call for entry CC(=O)OC(C)(C)C1CCC(C)(C(O)COc2ccc(CCNC(=O)c3ccccc3)cc2)O1 (stereo not given) :
Ans: F

Q: Call for entry Oc1ccc2ccccc2c1/N=N/c1ccc(Br)cc1 :
Ans: F

====

Measured GI50 of individual entries
System: U-251
Assay Summary: NCI tumour cell line growth inhibition, 48 h
Active and inactive are the calls of the source. Rule as the data show it: active = GI50 up to about 1.1 µM and inactive = higher.

Just so you know, measured GI50 for CC#CC(O)(C(=O)OC1CC(C)N(C)C(C)(C)C1)C1CCCC1 (configuration not stated) came out at > 100 µM (inactive)

====

Tested on: SK-MEL-28
Assay Summary: NCI tumour cell line growth inhibition, 48 h
Activity calls are given as the source filed them. Cut-off read from the data, not from the text of the source: active = GI50 up to about 1.1 µM and inactive = higher.
Respond only with the outcome that fits, drawn from T = active, F = inactive

Worked cases, answers included:
CC(C)(C)C#C[P+](c1ccccc1)(c1ccccc1)c1ccccc1 | T
Nc1nc(I)nc2c1ncn2C1OC(COS(N)(=O)=O)C(O)C1O (centres undefined) | T

Q: Call for entry CC(=O)C1=C(C)N(c2ccc(C)cc2)C2(O)C=CC(=O)C3C(=O)N(c4ccccc4)C(=O)C132 (centres undefined) :
Ans: F

Q: Call for entry COc1ccc(C2CC(c3sc(Nc4ccc(C)cc4)nc3C)=NN2)cc1 (centres undefined) :
Ans: F

Q: Call for entry COc1cc(-c2[nH]ccc2Cl)oc1C1=C2N=C3C=C2C(C(C)C)C1CCCCCCCC3 (centres undefined) :
Ans: F

Q: Call for entry On1c(-c2ccccc2)c(-c2ccccc2N2CCCC2)c2ccccc21 :
Ans: F

Q: Call for entry COc1ccc(NC(=O)CC(=O)NNC(Sc2ccccc2)c2cc(/N=N/c3ccc(Br)cc3)ccc2O)cc1 (centres undefined) :
Ans: F

Q: Call for entry Cc1cc(O)c(C(c2cccnc2)c2c(O)cc(C)[nH]c2=O)c(=O)[nH]1 :
Ans: F

Q: Call for entry CS(=O)(=O)OCCN(CCOS(C)(=O)=O)c1ccc(/C=N/c2ccc(-c3csc(Cc4ccccc4)n3)cc2)c(Cl)c1 :
Ans: F

====

Test system: K562
Assay Summary: NCI tumour cell line growth inhibition, 48 h
Active and inactive are the calls of the source. Cut-off read from the data, not from the text of the source: active = GI50 up to about 1.1 µM and inactive = higher.
Respond only with the outcome that fits, drawn from active, inactive

O=c1[nH]c(-c2ccccc2)nc2cc(Cl)ccc12 | inactive
CSCCC(N)P(C)(=O)O (stereo unspecified) | inactive

Q: Call for entry CN(C)c1n/c(=N/Cc2cccs2)ss1 :
Ans: inactive

Q: Call for entry C/C(=N\Nc1nc2ccccc2n1C)c1ccc2ccccc2n1 :
Ans: inactive

Q: Call for entry C=CCn1c(=O)ccn(COCCO)c1=O :
Ans: inactive

Q: Call for entry CCN(CC)CCCNc1ccc([N+](=O)[O-])c2nc3ccc(OC)cc3c(N)c12 :
Ans: inactive

Q: Call for entry CC1CC(C)C2=NOS3=C2C1=NO3 (stereo unspecified) :
Ans: inactive

Q: Call for entry COc1cc(-c2[nH]ccc2Cl)oc1C1=C2N=C3C=C2C(C(C)C)C1CCCCCCCC3 (stereo unspecified) :
Ans: active

====

Test system: MOLT-4
Assay Summary: NCI tumour cell line growth inhibition, 48 h
Calls of active or inactive are those of the source. Rule as the data show it: active = GI50 up to about 1.1 µM and inactive = higher.
Measured GI50 of individual entries

Examples from the recorded data:
CN1C(=O)C(=O)N2c3ccc(Cl)cc3C3(c4ccccc4)N=CC12O3 (stereo not given) | 3.07 µM (inactive)
O/N=C1\C/C(=N\O)c2c(Br)sc(Br)c21 | 29.2 µM (inactive)
Cc1c(O)ccc2c(O)c(NC(=O)c3ccc4c(c3)CCC(C)(C)O4)c(=O)oc12 | > 100 µM (inactive)
CC(C(=O)n1nnc2ccccc21)N(c1ccccc1)c1ccccc1 (stereo not given) | 99.5 µM (inactive)

Just so you know, measured GI50 for CCOP(=Nc1ccc(N(C)C)cc1)(OCC)OCC came out at > 100 µM (inactive)

====

System: HL-60
Assay Summary: NCI tumour cell line growth inhibition, 48 h
Active and inactive are the calls of the source. No stated cut-off is given here; in the data, active = GI50 up to about 1.1 µM and inactive = higher.
Respond only with the outcome that fits, drawn from active, inactive

Worked cases, answers included:
O=c1c(NO)c([N+](=O)[O-])cnn1-c1ccccc1 | active
CC1(C)OC(CCC#N)CN1C(=O)OCc1ccccc1 (stereo not drawn) | inactive
On1c(-c2ccccc2)c(-c2ccccc2N2CCCC2)c2ccccc21 | inactive
OC[C@H]1O[C@@H]2O[C@@](COCc3ccccc3)([C@H](OCc3ccccc3)[C@H]2O)[C@@H]1OCc1ccccc1 | inactive
CS(=O)(=O)OCCN(CCOS(C)(=O)=O)c1ccc(/C=N/c2ccc(-c3csc(Cc4ccccc4)n3)cc2)c(Cl)c1 | inactive
O=C1CCC[C@@H]2NC[C@@H](c3ccc4c(c3)OCO4)[C@H]12 | inactive
O=C(/C=C/c1ccc(Cl)cc1)c1ccccc(=O)c1O | active
CC1=CC(=O)[C@@H](O)[C@]2(C)[C@H]3[C@@]4(O)OC[C@]35[C@H]([C@@H](C)[C@H]4O)[C@@H](OC(=O)C(C)(C)CO)C(=O)O[C@@H]5C[C@@H]12 | active
CC#CC(O)(C(=O)OC1CC(C)N(C)C(C)(C)C1)C1CCCC1 (stereo not drawn) | inactive
CC[n+]1c(/C=C/c2cc(C(=O)OC)n3c2sc2ccccc23)sc2ccccc21 | inactive

Q: Call for entry O=C1C2ON3c4ccccc4C(=O)C3(c3ccccc3)C2C(=O)N1c1ccccc1 (stereo not drawn) :
Ans: inactive

Q: Call for entry Cc1ccc(S(=O)(=O)N/N=C/CN2C(=O)c3ccccc3C2=O)cc1 :
Ans: inactive

Q: Call for entry CO[C@H]1[C@@H](O)[C@H](O[C@@H]2C[C@H]3CC[C@@H]4[C@H](CC[C@]5(C)[C@@H](C6=CC(=O)OC6)CC[C@]45O)[C@@]3(C)[C@H](OC(C)=O)C2)O[C@@H](C)[C@H]1O :
Ans: active

Q: Call for entry O=C(Nc1ccccc1)n1[nH]c(=O)n(-c2ccccc2)c1=O :
Ans: inactive

Q: Call for entry Cc1ccc2nc(CN3CCCC(O)C3)cc(=O)n2c1 (stereo not drawn) :
Ans: inactive

Q: Call for entry O=C(CC(O)(C(F)(F)F)C(F)(F)F)c1cc(CC(=O)C(O)(C(F)(F)F)C(F)(F)F)cc(CC(=O)C(O)(C(F)(F)F)C(F)(F)F)c1 :
Ans: inactive

Q: Call for entry CCN1CCC(CNC(=O)c2ccc(N)cc2)N1CC (stereo not drawn) :
Ans: inactive

Q: Call for entry O=CN1CCC23CC(O)CCC2C1Cc1cc(Oc2nnnn2-c2ccccc2)cc(O)c13 (stereo not drawn) :
Ans: inactive
